- System: LOC_OS02G08530-cb003
- PROCEDURE SUMMARY: thermal shift delta Tm vs DMSO control; higher = stronger stabilization (binding);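 also: purified Escherichia coli-expressed rice kinase domain construct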
- STUDY CONDITIONS: 12.5 µM; protein concentration 2 µM
# if value of thermal shift delta Tm reaches 1 °C, tag T; if it stays below, tag F

[[record]]
compound = "CNC(=O)CN1CCC(Oc2cc3c(Nc4cccc(Cl)c4F)ncnc3cc2OC)CC1 [Sapitinib (AZD8931)]"
group = "F"

[[record]]
compound = "CCOc1cn(-c2ccc(F)cc2C)nc1C(=O)Nc1ccc(Oc2ccnc3cc(OC)c(OC)cc23)c(F)c1"
group = "T"

[[record]]
compound = "FC(F)c1nc2ccccc2n1-c1nc(N2CCOCC2)nc(N2CCOCC2)n1"
group = "F"

[[record]]
compound = "COc1cc2ncnc(Oc3ccc(CC(=O)Nc4cnn(C(C)C)c4)cc3)c2cc1OC"
group = "F"

[[record]]
compound = "C=CC(=O)Nc1cccc(Nc2nc(Nc3ccc(NC4CN(CCF)C4)cc3OC)ncc2C(F)(F)F)c1"
group = "T"

[[record]]
compound = "CNC(=O)c1cc(Oc2ccc(NC(=O)Nc3cc(C(C)(C)C)nn3-c3ccc4ncccc4c3)c(F)c2)ccn1 [Rebastinib (DCC-2036)]"
group = "T"

[[record]]
compound = "C=CC(=O)Nc1cccc(Sc2nc(Nc3ccc(N4CCN(C)CC4)cc3)ncc2Cl)c1"
group = "T"

[[record]]
compound = "CS(=O)(=O)CCNCc1ccc(-c2ccc3ncnc(Nc4ccc(OCc5cccc(F)c5)c(Cl)c4)c3c2)o1 [Lapatinib]"
group = "T"

[[record]]
compound = "O=C(Nc1ccc(-c2ccnc(Nc3ccc(N4CCOCC4)cc3)n2)cc1)C1CCCN1 (centres undefined)"
group = "F"

[[record]]
compound = "CC(C)Nc1cc(-c2c[nH]c(C(=O)N[C@H](CO)c3cccc(Cl)c3)c2)c(Cl)cn1"
group = "T"

[[record]]
compound = "C=CC(=O)N1CC[C@@H](Oc2nc(Nc3ccc(N4CCC(N5CCN(C)CC5)CC4)cc3)c(C(N)=O)nc2CC)C1 [Naquotinib(ASP8273)]"
group = "T"

[[record]]
compound = "COc1ccc(-c2nc(N3CCOCC3)c3sc(CN(C)c4ncc(C(=O)NO)cn4)cc3n2)cn1"
group = "F"

[[record]]
compound = "CCn1c(=O)c(-c2ccc(Cl)cc2Cl)cc2cnc(Nc3ccc(N4CCNCC4)c(F)c3)nc21"
group = "F"

[[record]]
compound = "COc1cc(OC)c(C=C2C(=O)Nc3ccccc32)c(OC)c1"
group = "F"

[[record]]
compound = "CN1CCN(c2ccc3nc(-c4c(N)c5c(F)cccc5[nH]c4=O)[nH]c3c2)CC1 [Dovitinib (TKI258) Lactate]"
group = "T"

[[record]]
compound = "NC(=O)c1cnc(N[C@@H]2CCCC[C@@H]2N)nc1Nc1cccc(-n2nccn2)c1"
group = "T"

[[record]]
compound = "CC(C)(C)c1cnc(CSc2cnc(NC(=O)C3CCNCC3)s2)o1"
group = "F"

[[record]]
compound = "Cn1cnc2c(F)c(Nc3ccc(Br)cc3F)c(C(=O)NOCCO)cc21"
group = "F"

[[record]]
compound = "CNC(=O)c1ccccc1Nc1nc(Nc2ccc(N3CCOCC3)cc2OC)ncc1Cl"
group = "T"


====

- Tested on: LOC_OS01G48390-cb002
- PROCEDURE SUMMARY: thermal shift delta Tm vs DMSO control; higher = stronger stabilization (binding)
- STUDY CONDITIONS: 12.5 µM; protein concentration 2 µM
The following compounds are listed with their measured thermal shift delta Tm values.
PROPERTY: thermal shift delta Tm

[[record]]
compound = "CC1=C(C(=O)Nc2cc3cn[nH]c3cc2F)C(c2ccc(C(F)(F)F)cc2)CC(=O)N1 (centres undefined)"
experimental_result = "-0.18 °C"

[[record]]
compound = "COCC(=O)NC/C=C/c1ccc2ncnc(Nc3ccc(Oc4ccc(C)nc4)c(C)c3)c2c1"
experimental_result = "0.4 °C"

[[record]]
compound = "Cc1cc(F)c(Nc2ncnc3cc(OCc4ccccc4)ccc23)cc1O"
experimental_result = "1.2 °C"

[[record]]
compound = "CN1CC(O)C2=C/C(=N/NC(N)=O)C(=O)C=C21 (centres undefined)"
experimental_result = "-0.01 °C"

[[record]]
compound = "Cc1n[nH]c2ncc(C(=O)N3CCC[C@H]3c3ccc(Cl)cc3)cc12"
experimental_result = "0.19 °C"

[[record]]
compound = "COc1cc(-c2cc(-c3ccc(N4CCNCC4)cc3)cnc2C)cc(OC)c1OC"
experimental_result = "0.11 °C"

[[record]]
compound = "CO[C@@H](C)Cn1c(=O)n(C)c2cnc3ccc(-c4cncc(C(C)(C)O)c4)cc3c21"
experimental_result = "0.5 °C"

[[record]]
compound = "CC(C)=CC[C@@H](O)C1=CC(=O)c2c(O)ccc(O)c2C1=O"
experimental_result = "5.3 °C"

[[record]]
compound = "CN(C)S(=O)(=O)c1ccc2c(c1)/C(=C/c1cc3c([nH]1)CCCC3)C(=O)N2"
experimental_result = "2.42 °C"

